pKa reference
studyConditions: basic group

# count of solved cases: 3
- compound: "NCC(O)C[NH3+]"
  pKa: 8.19
- compound: "C/C(CN(C)C)=N\\[O-]"
  pKa: 10.9
- compound: "CN(C)CCNCC[NH+](C)C"
  pKa: 8.96

Retrieve pKa measured for [NH3+]c1ccc(-c2cnc(-c3ccc(Br)cc3)o2)cc1 and print it.
0.26

Retrieve pKa measured for CCCC(N)C(=O)[O-] (stereo unspecified) and print it.
9.86

Retrieve pKa measured for C[NH2+]CCN(C)CC[NH2+]C and print it.
3.13

Retrieve pKa measured for ClCC1CN2CCC1CC2 (stereo unspecified) and print it.
10.2

###

pKa reference
studyConditions: basic group
Write the number on its own, no unit after it.

Retrieve pKa measured for Cc1ccccc1C(=NCC[NH+](C)C)c1ccccc1C and print it.
2.82

Retrieve pKa measured for Nc1nnnn1-c1ccc([N+](=O)[O-])cc1 and print it.
0.34

Retrieve pKa measured for C[C@H]1CC[C@H]2[C@H](C)CC[C@@H](C(=O)[O-])N2C1 and print it.
10.8

Retrieve pKa measured for CC1CC(=O)CC(=O)O1 (stereo not drawn) and print it.
5.1

Retrieve pKa measured for CCN(CC)CC(=N\[O-])/C(C)=N/O and print it.
11.9

Retrieve pKa measured for CCCCOC(=O)c1ccc(N)cc1 and print it.
2.47

Retrieve pKa measured for Cc1ccccc1NC(=O)CN and print it.
7.81

Retrieve pKa measured for NCCC=C(Cl)Cl and print it.
9.85

###

studyConditions: basic group
Rule: pKa of 8 or more gives T; anything lower gives F.

- compound: "COc1cccc(C(=O)CCN2CCOCC2)c1"
  group: "F"

Decide: pKa of CCNCc1ccccc1 >= 8?
T

Decide: pKa of Cc1n[nH]c(C)c1[N+](=O)[O-] >= 8?
F

Decide: pKa of [O-]c1ccnc2cccnc12 >= 8?
T

Decide: pKa of NC(Cc1c[nH]c2ccccc12)C(=O)[O-] (stereo not drawn) >= 8?
T

Decide: pKa of Cc1ccc(C(O)CN)cc1 (stereo not drawn) >= 8?
T

Decide: pKa of CN1CCC2Cc3ccc(O)c(O)c3C3CCCC1C23 (stereo not drawn) >= 8?
F

###

pKa reference
studyConditions: acidic group
Write the number on its own, no unit after it.

- compound: "Fc1cccc(NC(=S)c2cccc(Br)c2)c1"
  testReadout: "pKa"
  reportedMeasurement: 10
- compound: "CC(=O)c1ccc(S)cc1"
  testReadout: "pKa"
  reportedMeasurement: 5.33

Retrieve pKa measured for C/C=C/C1=C(O)C(=O)c2ccccc2C1=O and print it.
4.78

Retrieve pKa measured for CCCCSCC(=O)O and print it.
3.81

Retrieve pKa measured for COc1ccc(O)c(CNC(CO)C(=O)[O-])c1 (stereo not drawn) and print it.
10.4

Retrieve pKa measured for C[C@@]12CC(=O)N[C@]1(CCC(=O)O)C(=O)NC2=O and print it.
4.4

Retrieve pKa measured for Nc1nc([O-])c2nc[nH]c2n1 and print it.
12.6

Retrieve pKa measured for Oc1cc2ccccc2n[nH+]1 and print it.
0.21

###

studyConditions: acidic group
testReadout: pKa
Write the number on its own, no unit after it.

- inputSmiles: "NS(=O)(=O)c1ccc(P(=O)([O-])O)cc1"
  pKa: 6.38
- inputSmiles: "O=C(O)c1cc[n+]([O-])cc1"
  pKa: 2.86
- inputSmiles: "Cn1c(=O)c2c([nH]c(=O)n2C)n(C)c1=O"
  pKa: 6
- inputSmiles: "O=[N+]([O-])c1ccc(NS(=O)(=O)c2ccccc2)cc1"
  pKa: 6.63
- inputSmiles: "O=C(Cc1ccccc1)c1cc[n+](Cc2ccccc2)cc1"
  pKa: 8.8
- inputSmiles: "NNC(=O)C(F)(F)C(F)(F)F"
  pKa: 7.92

Field: next molecule
Retrieve pKa measured for C[N+](C)(C)c1ccc(O)c([N+](=O)[O-])c1 and print it.
5.03
